# Lookup of reported growth inhibition keyed by entry
# assay summary: NCI Yeast Anticancer Drug Screen. Data for the mec2-1 strain (AID 157)
# applied conditions: S. cerevisiae mec2-1 strain, at 50.0 µM, active compounds read high
This is part of a sample that, as a whole, favours compounds with a hit. Of some 79,000 tested, about 15% had one in any assay.
// units = %; emit number, no label

Entry under review: CN(C)c1ccc(/C=c2\sc3nnc(Cc4ccccc4)n3c2=O)cc1 . Reported growth inhibition?
-13.6

Same lookup for Nc1ncnc2c1ncn2C1OC(CSCc2ccc(Cl)cc2)C(O)C1O (stereo not given) , please.
10.8

Same lookup for COc1cccc(N(CN2C(=O)CCC2OC)C(C)=O)c1 (stereo not given) , please.
7.35

Same lookup for CSc1nc2c(ncn2C2OCC(O)C(O)C2O)c(=O)n1C (stereo not given) , please.
7.7

Same lookup for CC1CC2=C(C(=O)c3ccccc3C2=O)C(C)O1 (stereo not given) , please.
-29.5

Same lookup for COc1ccc(C(O)(CCN2CCOCC2)c2ccc3c(c2)OCO3)cc1 (stereo not given) , please.
9.2

Same lookup for O=C(Nc1ccccc1)Oc1ccc(/C=N/Sc2cccc([N+](=O)[O-])c2)cc1 , please.
60.6

###

# Lookup of reported growth inhibition keyed by entry
# assay summary: NCI Yeast Anticancer Drug Screen. Data for the bub3 strain (AID 167)
# applied conditions: S. cerevisiae bub3 mutant strain, at 50.0 µM, active compounds read high
This is part of a sample that, as a whole, favours compounds with a hit. Of some 79,000 tested, about 15% had one in any assay. Activity calls are given as the source filed them. Rule as the data show it: active = growth inhibition above about 70%; inactive = the rest.

compound="COC(=O)CNC(=O)C(Cc1ccccc1)NC(=O)OCc1ccccc1 (stereo unspecified)" measured_attribute="growth inhibition" reported_result="15.8% (inactive)"
compound=C(=C\C(SCc1ccccc1)SCc1ccccc1)/c1ccccc1 measured_attribute="growth inhibition" reported_result="-7.2% (inactive)"
compound=CCOC(=O)C1=C(Nc2cccc3ccccc23)OC/C1=N\NC(=O)c1ccccc1O measured_attribute="growth inhibition" reported_result="27.8% (inactive)"
compound=CNC(=O)Nc1cc2c3c(c1)CCCN3CCC2 measured_attribute="growth inhibition" reported_result="-9.55% (inactive)"

Entry under review: COc1cc(NCC(C#N)C#N)ccc1N=Nc1ccc([N+](=O)[O-])cc1 . Reported growth inhibition?
12.7% (inactive)

Same lookup for O=C1c2ccccc2C(=O)c2c1nnn2-c1ccccc1 , please.
17.2% (inactive)

###

# assay summary: NCI Yeast Anticancer Drug Screen. Data for the bub3 strain (AID 167)
# applied conditions: S. cerevisiae bub3 mutant strain, at 50.0 µM, active compounds read high
The panel holds about 79,000 compounds, 15% with a hit somewhere; the sample as a whole holds those more often. Calls of active or inactive are those of the source. Rule as the data show it: active = growth inhibition above about 70%; inactive = the rest.
# Lookup of reported growth inhibition keyed by entry

molecule=O=C(CCCCC(=O)NC1c2ccccc2Oc2ccccc21)NC1c2ccccc2Oc2ccccc21 reported_result="9.25% (inactive)"
molecule=Cc1c(O)ccc2c(O)c(NC(=O)c3ccc4c(c3)CCC(C)(C)O4)c(=O)oc12 reported_result="-21.5% (inactive)"
molecule=CCCCCCCCCCCCCCCCSC(=N)N reported_result="40% (inactive)"
molecule="CC(C)(C)OC(=O)NC(Cc1ccccc1)C(=O)N[C@H]1c2ccsc2/C(=N/O)[C@H]1O (stereo not given in full)" reported_result="-4.85% (inactive)"

Entry under review: COc1cc2c(cc1OC)C(=O)/C(=C/c1ccc([N+](=O)[O-])cc1)CC2 . Reported growth inhibition?
-28% (inactive)
